Hey, just so you know, these numbers are from patent US10208030B2.

STUDY SYSTEM: hGPR119 (Homo sapiens)
Construct: expressed in transfected cells; host or cells: CHO cells (CHO-hGPR119)
Sequence (Q8TDV5 whole entry): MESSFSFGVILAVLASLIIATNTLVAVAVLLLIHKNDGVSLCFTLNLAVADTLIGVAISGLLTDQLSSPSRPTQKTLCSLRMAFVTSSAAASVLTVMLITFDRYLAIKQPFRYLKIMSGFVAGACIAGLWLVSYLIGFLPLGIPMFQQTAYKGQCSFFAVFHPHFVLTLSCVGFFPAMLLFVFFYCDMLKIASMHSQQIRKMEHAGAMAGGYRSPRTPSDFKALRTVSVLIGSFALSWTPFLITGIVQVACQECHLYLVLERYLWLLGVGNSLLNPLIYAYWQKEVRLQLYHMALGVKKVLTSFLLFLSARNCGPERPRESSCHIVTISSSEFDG
TEST SUMMARY: In vitro cyclic AMP assay (Cisbio HTRF) in CHO-hGPR119 cells
Assay type: cell-based
RUN CONDITIONS: 1 h, cAMP, 1 μM, 60 min, read-out: Induction (% induction at 1 μM)
Label Fulfilled when activation at 1 µM is at or above 60%; otherwise label Not fulfilled.

Does the reported activation at 1 µM for `CC(C)OC(=O)N1CCC(c2cn3nc(-c4ccc(S(C)(=O)=O)cc4)sc3n2)CC1` fall at or above the 60% mark?
Not fulfilled

Confirm if activation at 1 µM reported for the molecule `CC(C)OC(=O)N1CCN(c2nn3cc(-c4ccc(S(C)(=O)=O)cc4)nc3s2)CC1` is 60% or above.
Not fulfilled

Test whether the molecule CC(C)c1noc(N2CCC(C(C)Oc3nn4cc(-c5ccc(S(C)(=O)=O)cc5)nc4s3)CC2)n1 (stereo not drawn) records activation at 1 µM of 60% or higher.
Fulfilled

Answer whether activation at 1 µM of `CC(C)c1noc(C2CCN(c3nn4c(Cl)c(-c5ccncc5)nc4s3)CC2)n1` is greater than or equal to 60%.
Not fulfilled

For this molecule, is measured activation at 1 µM 60% or higher? CC(C)c1noc(N2CCC(C(C)Oc3nn4cc(-c5cncs5)nc4s3)CC2)n1 (stereo not drawn)
Fulfilled

New cases:
Hello, I need to know if `CC(C)OC(=O)N1CCC(N(C)c2nn3cc(-c4ccc(S(C)(=O)=O)cc4)nc3s2)CC1` has measured activation at 1 µM not below 60%. Thanks!
Not fulfilled

State whether the measured activation at 1 µM reaches 60%, counting equality as reaching it, for `CCCc1cnc(N2CCC([C@H](C)Oc3nn4cc(-c5ccnc(OC)c5)nc4s3)CC2)nc1`
Fulfilled

In plain terms: is recorded activation at 1 µM at least 60% for CC(C)c1noc(N2CCC(C(C)Oc3nn4cc(-c5ccc(C(F)(F)F)nc5)nc4s3)CC2)n1 (stereo in doubt) ?
Fulfilled

Identify whether the reported activation at 1 µM of the following molecule is 60% or greater: CC(C)c1noc(N2CCC(C(C)Oc3nn4cc(-c5ccc(C(=O)N(C)C)cc5)nc4s3)CC2)n1 (stereo not drawn)
Not fulfilled

Reported activation at 1 µM reaches at least 60% for `CC(C)c1noc(N2CCC([C@H](C)Oc3nn4cc(-c5cnc(S(C)(=O)=O)nc5)nc4s3)CC2)n1` ?
Fulfilled

Could you tell me if the measured activation at 1 µM of `CCCc1cnc(N2CCC([C@H](C)Oc3nn4cc(-c5ccc(S(C)(=O)=O)cc5)nc4s3)CC2)nc1` reaches 60% or more?
Not fulfilled

// inclusive: activation at 1 µM at least 60%? input: CCOC(=O)N1CCC(C(C)Oc2nn3cc(-c4ccc(S(C)(=O)=O)cc4F)nc3s2)CC1 (stereo not drawn)
Fulfilled

Test whether the molecule CCc1cnc(N2CCC(C(C)Oc3nn4cc(-c5ccncc5)nc4s3)CC2)nc1 (stereo in doubt) [Compound 1080] records activation at 1 µM of 60% or higher.
Fulfilled

Is it the case that `CC(C)c1noc(N2CCC(COc3nn4cc(-c5ccc(S(C)(=O)=O)cc5)nc4s3)CC2)n1` has activation at 1 µM reaching or exceeding 60%?
Not fulfilled

Does the molecule `CC(C)c1noc(N2CCC([C@H](C)Oc3nn4cc(-c5ccc(S(C)(=O)=O)c(F)c5)nc4s3)CC2)n1` have recorded activation at 1 µM that is 60% or more?
Not fulfilled
